B1: library; numbered along this chain (parent)
chain: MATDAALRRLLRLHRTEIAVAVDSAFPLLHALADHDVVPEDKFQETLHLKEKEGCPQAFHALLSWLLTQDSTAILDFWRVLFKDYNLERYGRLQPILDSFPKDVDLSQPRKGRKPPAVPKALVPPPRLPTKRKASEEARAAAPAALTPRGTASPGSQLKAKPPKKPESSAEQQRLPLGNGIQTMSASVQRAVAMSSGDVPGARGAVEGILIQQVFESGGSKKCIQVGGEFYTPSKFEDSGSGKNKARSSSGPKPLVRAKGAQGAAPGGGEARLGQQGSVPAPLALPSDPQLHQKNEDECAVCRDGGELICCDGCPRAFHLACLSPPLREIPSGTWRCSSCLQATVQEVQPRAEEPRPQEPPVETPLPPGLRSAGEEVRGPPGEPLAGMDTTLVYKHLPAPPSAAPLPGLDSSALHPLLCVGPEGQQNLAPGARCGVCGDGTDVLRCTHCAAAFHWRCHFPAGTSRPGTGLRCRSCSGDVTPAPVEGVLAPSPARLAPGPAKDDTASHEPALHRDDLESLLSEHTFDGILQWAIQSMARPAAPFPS

- Variants of: B1
- Procedure text: AIRE transcriptional activation functional score (insulin promoter-GFP; nonsense median 0, synonymous median 1) (normalised score); higher = higher AIRE activity (more reporter activation)
- Assay setup: with insulin promoter-GFP reporter in HEK293
Exercise: state measured AIRE transcriptional activation functional score for each of the variants provided.

(Q) AIRE transcriptional activation functional score lookup needed for "P539W" , thanks.
(A) 0.719

(Q) So what's the measured AIRE transcriptional activation functional score for this one? "K294P"
(A) 1.21

(Q) Item under review: "K52R" . Reported AIRE transcriptional activation functional score?
(A) 0.664

(Q) Endpoint output: AIRE transcriptional activation functional score of "E376P" . Value?
(A) 1.25

(Q) Form field: reported AIRE transcriptional activation functional score of "V20E"
(A) -1.26

(Q) Name the reported AIRE transcriptional activation functional score value associated with the variant "P116L"
(A) 1.07

(Q) What does the record list as AIRE transcriptional activation functional score for "A386S" ?
(A) 0.756

(Q) Fill in the blank: the reported AIRE transcriptional activation functional score of "R351K" is ____.
(A) 0.457

(Q) Fill in: AIRE transcriptional activation functional score of "S464V" is ___
(A) 0.722

(Q) Fill in the blank: the reported AIRE transcriptional activation functional score of "R336M" is ____.
(A) 0.49

(Q) Consider the variant shown here: "V199R" What is its recorded AIRE transcriptional activation functional score?
(A) 0.735

(Q) Can you share its AIRE transcriptional activation functional score? I mean this variant: "Q94V"
(A) 1.42

(Q) State the recorded AIRE transcriptional activation functional score for this entry: "T130K"
(A) 0.531

(Q) Any idea what its AIRE transcriptional activation functional score is? The variant is "S234W"
(A) 0.775

(Q) Any idea what its AIRE transcriptional activation functional score is? The variant is "V420W"
(A) 1.35

(Q) Would you kindly share the measured AIRE transcriptional activation functional score for "H512L" ?
(A) 0.941

(Q) Report AIRE transcriptional activation functional score for "D312E" please.
(A) 0.977

(Q) Which AIRE transcriptional activation functional score reading was recorded for the variant "D515K" ?
(A) -0.501

Provenance of the data: the supplement of paper PMC12667976
